# TEST_SYSTEM: JAK1 (Homo sapiens, UniProt P23458)
# Construct: endogenous in cells; mixed lysate 1:2
# Sequence (P23458 whole entry): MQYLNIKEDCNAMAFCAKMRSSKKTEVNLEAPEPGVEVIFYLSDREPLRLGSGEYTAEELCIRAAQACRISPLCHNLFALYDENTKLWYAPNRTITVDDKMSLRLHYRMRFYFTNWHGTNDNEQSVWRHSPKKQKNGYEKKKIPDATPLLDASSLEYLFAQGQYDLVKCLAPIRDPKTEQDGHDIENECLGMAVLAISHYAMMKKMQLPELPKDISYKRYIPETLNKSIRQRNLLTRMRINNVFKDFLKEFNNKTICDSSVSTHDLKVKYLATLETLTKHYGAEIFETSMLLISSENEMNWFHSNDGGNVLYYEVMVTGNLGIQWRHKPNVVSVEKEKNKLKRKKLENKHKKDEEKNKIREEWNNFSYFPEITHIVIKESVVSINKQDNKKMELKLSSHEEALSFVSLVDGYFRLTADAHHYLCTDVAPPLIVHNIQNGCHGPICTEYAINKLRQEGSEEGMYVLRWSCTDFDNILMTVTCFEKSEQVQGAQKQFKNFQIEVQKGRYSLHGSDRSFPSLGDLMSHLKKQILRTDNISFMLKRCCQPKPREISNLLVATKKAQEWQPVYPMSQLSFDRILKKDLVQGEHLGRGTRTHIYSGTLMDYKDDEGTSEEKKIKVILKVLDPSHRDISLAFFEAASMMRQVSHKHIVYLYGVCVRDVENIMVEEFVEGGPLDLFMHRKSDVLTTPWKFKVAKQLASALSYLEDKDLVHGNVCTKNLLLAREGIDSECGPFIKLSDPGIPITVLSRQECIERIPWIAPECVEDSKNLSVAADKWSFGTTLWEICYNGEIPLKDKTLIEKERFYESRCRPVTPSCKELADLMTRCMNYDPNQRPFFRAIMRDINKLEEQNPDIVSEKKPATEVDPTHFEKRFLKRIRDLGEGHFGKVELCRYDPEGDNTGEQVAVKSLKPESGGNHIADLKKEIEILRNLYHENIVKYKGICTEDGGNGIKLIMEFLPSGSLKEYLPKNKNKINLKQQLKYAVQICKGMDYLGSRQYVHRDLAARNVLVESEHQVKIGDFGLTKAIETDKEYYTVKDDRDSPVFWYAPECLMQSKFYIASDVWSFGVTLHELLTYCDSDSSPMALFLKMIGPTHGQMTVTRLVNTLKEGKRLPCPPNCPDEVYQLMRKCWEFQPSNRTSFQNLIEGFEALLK
# PROTOCOL_DETAILS: Kinobeads assay with immunodetection, JAK1
# PROTOCOL_CONDITIONS: Kinobeads assay, mixed Molt4/Ramos lysate; read-out: Inhibition values (IC50) JAK1
Where a name gives a salt, the structure may show the parent alone.
PARAMETER_MEASURED: IC50

Below, each entry is followed by its recorded IC50 result.
COMPOUND	IC50
Cl.Cn1cc(Nc2ncc(F)c(NC[C@@H]3CCCN3S(C)(=O)=O)n2)cn1 [Example 75, Hydrochloride]	< 100 nM
OCCn1cc(Nc2ncc(Cl)c(NCC3CCNC3)n2)cn1 (stereo in doubt)	100 to 1000 nM
CN(C)CC(=O)N1CCC[C@@H]1CNc1nc(Nc2cnn(C)c2)ncc1Cl	< 100 nM
C=CS(=O)(=O)N1CC[C@H](CNc2nc(Nc3cnn(C)c3)ncc2Cl)C1	100 to 1000 nM

Endpoint output: IC50 of CC(=O)N1CCCC[C@H]1CNc1nc(Nc2cnn(CCO)c2)ncc1Cl . Value? 1000 to 10000 nM

Then Cc1cnc(Nc2cnn(C)c2)nc1NC[C@@H]1CCCN1 [Example 73, Hydrochloride] ? 1000 to 10000 nM

Then Cn1cc(Nc2ncc(Cl)c(NC[C@H]3CCCN3CCCC#N)n2)cn1 ? < 100 nM

Then Cc1cnc(Nc2cnn(CC(F)F)c2)nc1NC[C@H]1CCCN1CCS(C)(=O)=O ? < 100 nM

Then Cn1cc(Nc2ncc(Cl)c(NC[C@@H]3CCCN3S(C)(=O)=O)n2)cn1 ? < 100 nM
